Protein target, amino acids: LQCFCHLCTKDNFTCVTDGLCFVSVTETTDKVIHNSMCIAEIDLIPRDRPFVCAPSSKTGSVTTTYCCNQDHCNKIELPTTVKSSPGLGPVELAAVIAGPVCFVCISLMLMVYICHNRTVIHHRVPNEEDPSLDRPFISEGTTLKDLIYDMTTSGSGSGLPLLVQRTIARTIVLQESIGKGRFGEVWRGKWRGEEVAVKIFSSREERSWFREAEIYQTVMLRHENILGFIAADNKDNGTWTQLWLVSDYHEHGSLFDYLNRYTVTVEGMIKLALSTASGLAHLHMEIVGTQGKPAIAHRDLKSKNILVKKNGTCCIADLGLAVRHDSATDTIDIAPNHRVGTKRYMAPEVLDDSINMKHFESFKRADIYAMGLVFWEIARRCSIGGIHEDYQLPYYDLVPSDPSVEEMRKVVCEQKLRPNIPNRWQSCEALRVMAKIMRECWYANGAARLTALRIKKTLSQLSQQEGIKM
OUTCOME MEASURE: IC50 (nM)

Recorded results for 3 compounds are shown here.
[
  {
    "CHEM SMILES": "O=c1[nH]cnc2ccc(-c3c(-c4ccn(CC(F)F)n4)nc4n3CCC4)cc12",
    "IC50 (nM)": 52
  },
  {
    "CHEM SMILES": "CC(C)n1ccc(-c2nc3occn3c2-c2ccc3ncn(C)c(=O)c3c2)n1",
    "IC50 (nM)": 7.2
  },
  {
    "CHEM SMILES": "CC(C)n1ccc(-c2nc3n(c2-c2ccc4ncc(C(N)=O)n4c2)CCC3)n1",
    "IC50 (nM)": 5.5
  }
]

(a) O=C(NC1CCOCC1)c1ccc(-c2cc(-c3c(-c4ccn(C5CC5)n4)nc4n3CCC4)ccn2)cc1
(b) Cn1cnc2ccc(-c3c(-c4ccn(C5CC5)n4)nc4n3CCC4)cc2c1=O
(c) CC(C)n1ccc(-c2nc3sccn3c2-c2ccc3ncn(C)c(=O)c3c2)n1
(d) CS(=O)(=O)c1ccc(-c2cc(-c3c(-c4ccn(C5CC5)n4)nc4n3CCC4)ccn2)cc1
(e) Cn1cnc2ccc(-c3c(-c4ccn(CC(F)F)n4)nc4n3CCC4)cc2c1=O
// smallest IC50 at index 0, largest at the end Give the order by naming the labels one after another as requested.
b, c, a, e, d
(b: 6.7 nM, c: 22 nM, a: 55 nM, e: 90 nM, d: 129 nM)

----------
Target: TGFBR1 (ALK5) (Homo sapiens, UniProt P36897)
Sequence (P36897 34-503): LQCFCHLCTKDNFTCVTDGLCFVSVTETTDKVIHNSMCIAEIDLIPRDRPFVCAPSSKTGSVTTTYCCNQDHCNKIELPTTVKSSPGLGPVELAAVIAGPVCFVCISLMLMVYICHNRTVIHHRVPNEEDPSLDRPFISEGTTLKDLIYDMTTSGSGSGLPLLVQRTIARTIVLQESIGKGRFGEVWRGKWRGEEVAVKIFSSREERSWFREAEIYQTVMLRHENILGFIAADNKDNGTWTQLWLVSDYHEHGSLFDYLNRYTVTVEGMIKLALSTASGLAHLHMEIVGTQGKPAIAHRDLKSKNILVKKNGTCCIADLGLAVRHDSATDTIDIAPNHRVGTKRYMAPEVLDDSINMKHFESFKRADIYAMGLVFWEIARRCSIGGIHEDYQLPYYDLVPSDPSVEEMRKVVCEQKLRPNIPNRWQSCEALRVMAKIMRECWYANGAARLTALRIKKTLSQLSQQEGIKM
OUTCOME MEASURE: IC50 (nM)

Recorded results for 2 compounds are shown here.
[
  {
    "COMPOUND": "NC(=O)c1cnc2ccc(-c3c(-c4ccn(C5CC5)n4)nc4n3CCC4)cn12",
    "IC50 (nM)": 3.3
  },
  {
    "COMPOUND": "CC(C)n1ccc(-c2nc3occn3c2-c2ccc3nc[nH]c(=O)c3c2)n1",
    "IC50 (nM)": 5.2
  }
]

(A) O=c1c2cc(-c3c(-c4ccn(C5CC5)n4)nc4n3CCC4)ccc2ncn1CCN1CCOCC1
(B) Oc1ncnc2ccc(-c3c(-c4ccn(C5CC5)n4)nc4n3CCC4)cc12
Consider entries A and B . Which has the numerically lower IC50? Write down the label of the entry you select.
B

Source: patent EP3840748B1
